I'd be grateful if you could share measured IC50 for these entries.
system: S6K1 (Thr389) phosphorylation (mTORC1 activity) in wild-type (WT) 293T cells; assay: Inhibition of S6K1 (Thr389) phosphorylation in wild-type 293T cells (ELISA); format: cell-based, human; settings: Homo sapiens, HEK-293T, 2 h, wild-type 293T cells, 2 hours treatment
Respond with the bare value in nM.

Consider the molecule CO[C@@H]1C[C@H](C[C@@H](C)[C@@H]2CC[C@H](C)/C=C(\C)[C@@H](O)[C@@H](OC)C(=O)[C@H](C)C[C@H](C)/C=C/C=C/C=C(\C)C(N(C)c3ccccc3)C[C@@H]3CC[C@@H](C)[C@@](O)(O3)C(=O)C(=O)N3CCCCC3C(=O)O2)CC[C@H]1O (stereo partly shown) and give its recorded IC50.
2.43

Provide measured IC50 value, entry: COc1cccc(NC2C[C@@H]3CC[C@@H](C)[C@@](O)(O3)C(=O)C(=O)N3CCCCC3C(=O)O[C@H]([C@H](C)C[C@@H]3CC[C@@H](O)[C@H](OC)C3)CC[C@H](C)/C=C(\C)[C@@H](O)[C@@H](OC)C(=O)[C@H](C)C[C@H](C)/C=C/C=C/C=C/2C)c1 (stereo partly shown)
11

State its IC50 for this molecule: CO[C@@H]1CC(C[C@@H](C)[C@@H]2CC[C@H](C)/C=C(\C)[C@@H](O)[C@@H](OC)C(=O)[C@H](C)C[C@H](C)/C=C/C=C/C=C(\C)C(Nc3ccccc3)CC3CC[C@@H](C)[C@@](O)(O3)C(=O)C(=O)N3CCCC[C@H]3C(=O)O2)CC[C@H]1O (stereo partly shown)
0.55

Retrieve IC50 measured for CO[C@@H]1CC(C[C@@H](C)[C@@H]2CC[C@H](C)/C=C(\C)[C@@H](O)[C@@H](OC)C(=O)[C@H](C)C[C@H](C)/C=C/C=C/C=C(\C)C(Nc3cncc(C)n3)CC3CC[C@@H](C)[C@@](O)(O3)C(=O)C(=O)N3CCCC[C@H]3C(=O)O2)CC[C@H]1O (stereo partly shown) and print it.
3

* * *

test: Pharmacokinetic studies in male CD-1 mice (plasma, IV and PO); assay type: in vivo, mouse; conditions: male, CD-1; mouse plasma, PO 10 mg/kg
Assay Metric: Cmax (ng/mL)
The reply should be a number in ng/mL, with the unit left off.

Give the reported Cmax for this compound. COCCN(c1ccccc1)C1C[C@@H]2CC[C@@H](C)[C@@](O)(O2)C(=O)C(=O)N2CCCC[C@H]2C(=O)OC([C@H](C)CC2CC[C@@H](O)C(OC)C2)CC[C@H](C)/C=C(\C)C(O)C(OC)C(=O)[C@H](C)C[C@H](C)/C=C/C=C/C=C/1C (some centres unmarked)
12900

For the compound CO[C@H]1C[C@@H]2CC[C@@H](C)[C@@](O)(O2)C(=O)C(=O)N2CCCC[C@H]2C(=O)O[C@H]([C@H](C)C[C@@H]2CC[C@@H](OCCO)[C@H](OC)C2)CC(=O)[C@H](C)/C=C(\C)[C@@H](O)[C@@H](OC)C(=O)[C@H](C)C[C@H](C)/C=C/C=C/C=C/1C [RAD001, everolimus, reference compound] , report Cmax.
7220

* * *

experiment: Pharmacokinetic studies in male CD-1 mice (plasma, IV and PO); type: in vivo, mouse; settings: male, CD-1; mouse plasma, PO 10 mg/kg; read-out: Compound concentration at 8-hour, PO administration
Provide the reported concentration at 8 h of each item.
Quick reminder: number only, in ng/mL, skip the unit.

Please report the measured concentration at 8 h for COCCN(c1ccccc1)C1C[C@@H]2CC[C@@H](C)[C@@](O)(O2)C(=O)C(=O)N2CCCC[C@H]2C(=O)OC([C@H](C)CC2CC[C@@H](O)C(OC)C2)CC[C@H](C)/C=C(\C)C(O)C(OC)C(=O)[C@H](C)C[C@H](C)/C=C/C=C/C=C/1C (some centres unmarked)
10000

Recall and state the measured concentration at 8 h for CO[C@H]1C[C@@H]2CC[C@@H](C)[C@@](O)(O2)C(=O)C(=O)N2CCCC[C@H]2C(=O)O[C@H]([C@H](C)C[C@@H]2CC[C@@H](OCCO)[C@H](OC)C2)CC(=O)[C@H](C)/C=C(\C)[C@@H](O)[C@@H](OC)C(=O)[C@H](C)C[C@H](C)/C=C/C=C/C=C/1C [RAD001, everolimus, reference compound] .
1960

* * *

assay: In vitro microsomal metabolic stability, human liver microsomes; type: in vitro ADME; conditions: human, human liver microsomes, pH 7.2
Assay Metric: CLint scaled at 1 µM (mL/min/kg)
Note: unit mL/min/kg is implicit; provide only the numeric part.

Find the measured CLint scaled at 1 µM of CO[C@@H]1C[C@H](C[C@@H](C)[C@@H]2CC[C@H](C)/C=C(\C)[C@@H](O)[C@@H](OC)C(=O)[C@H](C)C[C@H](C)/C=C/C=C/C=C(\C)C(Nc3cccc(OC(F)(F)F)c3)C[C@@H]3CC[C@@H](C)[C@@](O)(O3)C(=O)C(=O)N3CCCCC3C(=O)O2)CC[C@H]1O (some centres unmarked) and report it.
18

Answer with the recorded CLint scaled at 1 µM of CO[C@@H]1C[C@H](C[C@@H](C)[C@@H]2CC[C@H](C)/C=C(\C)[C@@H](O)[C@@H](OC)C(=O)[C@H](C)C[C@H](C)/C=C/C=C/C=C(\C)C(Nc3cccc(C)c3)C[C@@H]3CC[C@@H](C)[C@@](O)(O3)C(=O)C(=O)N3CCCCC3C(=O)O2)CC[C@H]1O (some centres unmarked) only.
54.7

* * *

assay: In vitro microsomal metabolic stability, CD-1 mouse liver microsomes; format: in vitro ADME; conditions: CD-1, mouse, mouse liver microsomes, pH 7.2
Assay Metric: microsomal CLint at 1 µM (µL/min/mg)
Report the value in µL/min/mg with no unit label.

State its microsomal CLint at 1 µM: CO[C@@H]1C[C@H](C[C@@H](C)[C@@H]2CC[C@H](C)/C=C(\C)[C@@H](O)[C@@H](OC)C(=O)[C@H](C)C[C@H](C)/C=C/C=C/C=C(\C)C(NS(=O)(=O)c3cnoc3C)C[C@@H]3CC[C@@H](C)[C@@](O)(O3)C(=O)C(=O)N3CCCCC3C(=O)O2)CC[C@H]1O (stereo partly shown)
64.3

Please list microsomal CLint at 1 µM recorded for the compound CO[C@H]1C[C@@H]2CC[C@@H](C)[C@@](O)(O2)C(=O)C(=O)N2CCCC[C@H]2C(=O)O[C@H]([C@H](C)C[C@@H]2CC[C@@H](OCCO)[C@H](OC)C2)CC(=O)[C@H](C)/C=C(\C)[C@@H](O)[C@@H](OC)C(=O)[C@H](C)C[C@H](C)/C=C/C=C/C=C/1C [RAD001, everolimus, reference compound]
19.4

Give me measured microsomal CLint at 1 µM, please, for this compound: CO[C@@H]1CC(C[C@@H](C)[C@@H]2CC[C@H](C)/C=C(\C)[C@@H](O)[C@@H](OC)C(=O)[C@H](C)C[C@H](C)/C=C/C=C/C=C(\C)C(Nc3cncc(C)n3)CC3CC[C@@H](C)[C@@](O)(O3)C(=O)C(=O)N3CCCC[C@H]3C(=O)O2)CC[C@H]1O (stereo partly shown)
16.6

Given the compound CO[C@@H]1C[C@H](C[C@@H](C)[C@@H]2CC[C@H](C)/C=C(\C)[C@@H](O)[C@@H](OC)C(=O)[C@H](C)C[C@H](C)/C=C/C=C/C=C(\C)C(Nc3cccc(OC(F)(F)F)c3)C[C@@H]3CC[C@@H](C)[C@@](O)(O3)C(=O)C(=O)N3CCCCC3C(=O)O2)CC[C@H]1O (stereo partly shown) , write its reported microsomal CLint at 1 µM.
6.4

Supply recorded microsomal CLint at 1 µM for COCCN(c1ccccc1)C1C[C@@H]2CC[C@@H](C)[C@@](O)(O2)C(=O)C(=O)N2CCCC[C@H]2C(=O)OC([C@H](C)CC2CC[C@@H](O)C(OC)C2)CC[C@H](C)/C=C(\C)C(O)C(OC)C(=O)[C@H](C)C[C@H](C)/C=C/C=C/C=C/1C (stereo partly shown) here.
2.81

Supply microsomal CLint at 1 µM value. Item: CO[C@@H]1CC(C[C@@H](C)[C@@H]2CC[C@H](C)/C=C(\C)[C@@H](O)[C@@H](OC)C(=O)[C@H](C)C[C@H](C)/C=C/C=C/C=C(\C)C(Nc3ccccc3)CC3CC[C@@H](C)[C@@](O)(O3)C(=O)C(=O)N3CCCC[C@H]3C(=O)O2)CC[C@H]1O (stereo partly shown)
10.6

# return recorded microsomal CLint at 1 µM for input CO[C@@H]1C[C@H](C[C@@H](C)[C@@H]2CC[C@H](C)/C=C(\C)[C@@H](O)[C@@H](OC)C(=O)[C@H](C)C[C@H](C)/C=C/C=C/C=C(\C)C(Nc3cnon3)C[C@@H]3CC[C@@H](C)[C@@](O)(O3)C(=O)C(=O)N3CCCCC3C(=O)O2)CC[C@H]1O (stereo partly shown)
16.4

Quote microsomal CLint at 1 µM reported for CCOc1cccc(NC2C[C@@H]3CC[C@@H](C)[C@@](O)(O3)C(=O)C(=O)N3CCCCC3C(=O)O[C@H]([C@H](C)C[C@@H]3CC[C@@H](O)[C@H](OC)C3)CC[C@H](C)/C=C(\C)[C@@H](O)[C@@H](OC)C(=O)[C@H](C)C[C@H](C)/C=C/C=C/C=C/2C)c1 (stereo partly shown) please.
10.3

Report microsomal CLint at 1 µM for CO[C@@H]1C[C@H](C[C@@H](C)[C@@H]2CC[C@H](C)/C=C(\C)[C@@H](O)[C@@H](OC)C(=O)[C@H](C)C[C@H](C)/C=C/C=C/C=C(\C)C(Nc3ccc(C)cc3)C[C@@H]3CC[C@@H](C)[C@@](O)(O3)C(=O)C(=O)N3CCCCC3C(=O)O2)CC[C@H]1O (stereo partly shown)
10.7

Look up microsomal CLint at 1 µM of COc1cccc(NC2C[C@@H]3CC[C@@H](C)[C@@](O)(O3)C(=O)C(=O)N3CCCCC3C(=O)O[C@H]([C@H](C)C[C@@H]3CC[C@@H](O)[C@H](OC)C3)CC[C@H](C)/C=C(\C)[C@@H](O)[C@@H](OC)C(=O)[C@H](C)C[C@H](C)/C=C/C=C/C=C/2C)c1 (stereo partly shown) and report it.
41

Please look at this compound and report its microsomal CLint at 1 µM: CO[C@@H]1C[C@H](C[C@@H](C)[C@@H]2CC[C@H](C)/C=C(\C)[C@@H](O)[C@@H](OC)C(=O)[C@H](C)C[C@H](C)/C=C/C=C/C=C(\C)C(Nc3ccsc3)C[C@@H]3CC[C@@H](C)[C@@](O)(O3)C(=O)C(=O)N3CCCCC3C(=O)O2)CC[C@H]1O (stereo partly shown)
93.5
